Biological target: T1, human TL1A (hTL1A) antigen (human, UniProt O95150 58-251, limits assumed)
T1 construct: also called TNFSF15
T1 sequence (looked up): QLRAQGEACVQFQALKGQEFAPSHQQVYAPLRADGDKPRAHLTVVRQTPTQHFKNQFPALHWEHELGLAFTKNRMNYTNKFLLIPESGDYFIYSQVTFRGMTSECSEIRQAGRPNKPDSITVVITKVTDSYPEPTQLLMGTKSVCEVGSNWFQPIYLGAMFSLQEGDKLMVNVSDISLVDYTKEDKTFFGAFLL
Assay: SPR, affinity ranking, clone as ligand
Observation type: koff (s⁻¹)
Answer format: numeric, s⁻¹ implied, no suffix.

AS12819 (antibody, V domains shown, Humanized 5C3D11 clone from a phage display library; also called 10) VH: QVQLVQSGAEVVKPGASVKLSCKASGFDICDTYMHWVRQRPGQGLEWMGRIDPASGHTKYDPKFQVRVTMTTDTSTSTVYLELSSLRSEDTAVYYCARSGGLPDVWGQGTTVTVSS VL: EIVLTQSPGTLSLSPGERVTMSCRASSSVSYMYWYQQKPGQAPRPWIYATSNLASGVPDRFSGSGSGTDFTLTISRVEPEDFAVYYCQQWSGNPRTFGGGTKVEIK : 3.81e-05

Exercise: Which koff is reported for this binder? AS12825 (antibody, V domains shown, Humanized 5C3D11 clone from a phage display library; also called 16) VH: QVQLVQSGAEVKKPGASVKVSCKASGFDICDTYMHWVKQAPGQGLEWMGRIDPASGHTKYDPKFQVRATMTTDTSTSTAYLELSSLRSEDTAVYYCSRSGGLPDVWGQGTTVTVSS VL: EIVLTQSPGTLSASPGERVTMSCRASSSVSYMYWYQQKPGQAPRLLIYATSNLASGVPDRFSGSGSGTDFTLTISRVEPEDFAVYYCQQWSGNPRTFGGGTKLEIK
Key: 5.45e-05

Exercise: Now consider AS12823 (antibody, V domains shown, Humanized 5C3D11 clone from a phage display library; also called 14) VH: QVQLVQSGAEVKKPGASVKLSCKASGFDICDTYMHWVRQRPGQGLEWIGRIDPASGHTKYDPKFQVRATMTTDTSTSTVYLELSSLRSEDTAVYYCARSGGLPDVWGQGTTVTVSS VL: EIVLTQSPGTLSLSPGERATMSCRASSSVSYMYWYQQKPGQAPRPWIYATSNLASGIPDRFSGSGSGTDFTLTISRVEPEDFAVYYCQQWSGNPRTFGGGTKLEIK and answer again.
Key: 3.66e-05

Exercise: Now give it for AS12816 (antibody, V domains shown, Humanized 5C3D11 clone from a phage display library) VH: QVQLVQSGAEVKKPGASVKVSCKASGFDICDTYMHWVKQRPGQGLEWIGRIDPASGHTKYDPKFQVRATITRDTSTSTAYLELSSLRSEDTAVYYCSRSGGLPDVWGQGTTVTVSS VL: EIVLTQSPGTLSASPGERVTLSCRASSSVSYMYWYQQKPGQAPRPWIYATSNLASGVPDRFSGSGSGTDFTLTISRLEPEDFAVYYCQQWSGNPRTFGGGTKLEIK too.
Key: 4.73e-05

src = patent US20260102485A1
